system: Plasmodium falciparum; test: Hit confirmation in dose-response curve in NF54 pLDH assay, at 72h; assay type: functional, organism-based; parameters: timepoint 72 hour; conditions: NF54, Erythrocyte
reported-metric: log10(IC50) (log10 of the value in µM)

>>> df
                                    compound      target_under_test  reported_metric  reported
 0  CCNC(=O)c1csc(COc2ccc3c(c2)[C@H](c2ccc(C)cc2)N(C(=O)CC(C)C)CC3)n1  Plasmodium falciparum      log10(IC50)      0.89
 1  CC(=O)Nc1c(-c2ccc(C)cc2)c(C)nn1-c1ccc(C(=O)Nc2cc(C)ccn2)cc1  Plasmodium falciparum      log10(IC50)      0.98
 2  CN1CCN([C@H]2CCN(c3ccnc4ccc(Cl)cc34)C[C@H]2CCCO)CC1  Plasmodium falciparum      log10(IC50)      0.33
 3  COC1CCCC1NC(=O)Nc1ncc(Br)cc1C (configuration not stated)  Plasmodium falciparum      log10(IC50)      0.14
 4  CC1CCN(C[C@H]2CCCCCN2C(=O)NCCc2ccccc2)CC1  Plasmodium falciparum      log10(IC50)      0.39
 5  O=C(Cc1ccc(N(Cc2cccc(F)c2)C(=O)C2CCCC2)cc1)NCCN1CCCC1  Plasmodium falciparum      log10(IC50)      0.70
 6            Cc1ccc(Nc2ccc(N3CCNCC3)nn2)nc1  Plasmodium falciparum      log10(IC50)      0.50
 7  CN1CCCN(c2ccc(NC(=O)c3nn(-c4ccccc4)c(=O)c4ccccc34)cc2F)CC1  Plasmodium falciparum      log10(IC50)      0.32
 8  N#Cc1cccc(-c2n[nH]c3c2CN(c2ccc(-c4ccccc4)nn2)CC3)c1  Plasmodium falciparum      log10(IC50)      0.68
 9  COc1ccc2c(/C=C/c3cc[n+](C)cc3)cn(Cc3ccccc3)c2c1  Plasmodium falciparum      log10(IC50)      0.20
10  Cc1ccc2c(c1)CCCN2C(=O)CN1CC=C(c2cnn(C)c2)CC1  Plasmodium falciparum      log10(IC50)      0.58
11      CCc1ccc(C(=O)Nc2cnc(-n3ccnc3)nc2)cc1  Plasmodium falciparum      log10(IC50)      0.55
12  COc1cc2c(cc1OC)[C@@H](NC(=O)c1cnc(C3(C)OCCO3)s1)CCCC2  Plasmodium falciparum      log10(IC50)      0.87
13  N#Cc1c(-c2ccccc2)cc(-c2ccccc2)nc1S(=O)(=O)Cc1ccccc1  Plasmodium falciparum      log10(IC50)      0.61
14  c1coc(CNc2nc(Nc3cccc4ccccc34)nc3ccccc23)c1  Plasmodium falciparum      log10(IC50)      0.90
15  Oc1ccc2cc(CN3CCC[C@H](CN4CCCC4)C3)ccc2c1  Plasmodium falciparum      log10(IC50)      0.24
16  Cc1ccc(C(=O)Nc2cc3c4c(c2)C2CCCC2CN4CC2CCCC32)cc1 (configuration not stated)  Plasmodium falciparum      log10(IC50)      0.59
17          CN(C)c1noc(CN2CCc3ccc(F)cc3C2)n1  Plasmodium falciparum      log10(IC50)      0.86
18  CCOc1cc(C(c2c(C)n(C)n(-c3ccccc3)c2=O)c2c(C)n(C)n(-c3ccccc3)c2=O)ccc1OCc1ccccc1  Plasmodium falciparum      log10(IC50)      0.84
19  CC(NCC(O)Cn1c(-c2ccccc2)c(-c2ccccc2)c2ccc3ccccc3c21)c1ccccc1 (configuration not stated)  Plasmodium falciparum      log10(IC50)      0.96
20  O=C(Nc1cccc(Cl)c1)Nc1cccc(-c2cnc3n2CCC3)c1  Plasmodium falciparum      log10(IC50)      0.73
21  O=S(=O)(c1ccc(F)c(Cl)c1)N1CC[C@H](Oc2ccncc2Cl)C1  Plasmodium falciparum      log10(IC50)      0.88
22  O=C(N[C@H]1CC[C@@H]2CCC[C@@H]21)c1c[nH]c(=O)c(Cl)c1  Plasmodium falciparum      log10(IC50)      0.60
23  O=C(Nc1cc(N2CCCS2(=O)=O)ccc1O)c1cccc(Oc2cccc(C(F)(F)F)c2)c1  Plasmodium falciparum      log10(IC50)      0.04
24  COc1ccc(-c2c(C(F)(F)F)n[nH]c2-c2ccc(OCc3ccccc3F)cc2O)cc1  Plasmodium falciparum      log10(IC50)      0.80
25  c1cc(-c2nc3cc4ccccc4cc3[nH]2)nc(-c2nc3cc4ccccc4cc3[nH]2)c1  Plasmodium falciparum      log10(IC50)      0.06
26  COc1ccc(-c2cc(C(=O)N[C@H]3CCN(c4ccc(=O)[nH]n4)C3)c(C)n2C)cc1  Plasmodium falciparum      log10(IC50)      0.31
27  COc1ccc(-c2csc(-n3cc(C4=CCN(CCO)CC4)cn3)n2)cc1  Plasmodium falciparum      log10(IC50)      0.74
28     CN1CC[C@H](CN(C)Cc2ccc3cc(O)ccc3c2)C1  Plasmodium falciparum      log10(IC50)     -0.08
29  CCOc1ccc(-[n+]2cc(-c3ccccc3)n3c2CCC3)cc1  Plasmodium falciparum      log10(IC50)     -0.12
30   C[n+]1ccc(-c2ncc(-c3ccccc3)o2)c2ccccc21  Plasmodium falciparum      log10(IC50)      0.15
31  Cc1nsc2ncc(C(=O)N3CCC(C)CC3)c(N3CCC(C(=O)Nc4cc(F)ccc4F)CC3)c12  Plasmodium falciparum      log10(IC50)      1.06
32   COc1cc(CNCCCN2CCOCC2)ccc1OCc1ccc(Cl)cc1  Plasmodium falciparum      log10(IC50)      0.65
